Field: melting point. Provide a value for each of the compounds that follow.

So what's the measured melting point for this one? CCn1c2ccccc2c2c3c(nc(C)c21)CC(C)(C)CC3=O
174 to 177 °C

Bench note: what melting point did COC(=O)C1CN(Cc2ccccc2)c2ccccc2CN1S(=O)(=O)c1ccc(OC)cc1 (stereo not given) show?
120 to 122 °C

Requested read-out: melting point. Entry: c1cc2c3c(cccc3c1)NN=N2
80 to 81 °C

Would you kindly share the measured melting point for O=C(OC1=CC(O)=CC(C=Cc2ccc(O)cc2)(C(=O)c2cc(O)c(O)c(O)c2)C1)c1cc(O)c(O)c(O)c1 (stereo not given) ?
210 to 212 °C

Fill in the blank: the reported melting point of Nc1c(Cl)cc(C(O)CNCCCCCCOCCc2ccccc2)cc1Cl (stereo not given) is ____.
60 to 63 °C

Quick one: melting point for N#CC(=Cc1ccncc1)c1cccnc1 ?
150 to 152 °C

Looking for the measured melting point of Oc1ccc2oc(-c3cc(OCc4ccccc4)c(O)cc3-c3ccccc3)cc2c1 , can you help?
186 to 187 °C

Please give the measured melting point for this compound: CN1C(=O)C(Cc2ccccc2)(c2ccccc2O)c2ccccc21 (stereo not given)
188 to 190 °C

Item under review: O=C(/C=C/c1cccc(F)c1)N1CCN(C(=O)c2cc(C(F)(F)F)cc(C(F)(F)F)c2)[C@H](Cc2c[nH]c3ccccc23)C1 . Reported melting point?
120 to 130 °C

Quick check: melting point of N=C(Nc1ccc(Cl)cc1)Nc1ncccc1OCc1ccc(F)cc1F ?
182 to 184 °C
